The reported measurements were obtained from the RNAGym collection of RNA variant scans (doi:10.1093/molbev/msab373).

B1: Azoarcus group I ribozyme (parent)
chain: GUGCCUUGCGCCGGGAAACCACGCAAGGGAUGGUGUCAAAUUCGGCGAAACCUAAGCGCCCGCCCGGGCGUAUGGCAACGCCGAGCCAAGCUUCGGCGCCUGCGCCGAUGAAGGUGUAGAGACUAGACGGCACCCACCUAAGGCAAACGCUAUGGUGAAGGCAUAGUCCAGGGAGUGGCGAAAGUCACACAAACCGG

# Variants of: B1
# experiment notes: reverse-splicing fitness (ratio to wild type); higher = more active; in vitro selection; Mg2+ level not given
reported endpoint: reverse-splicing fitness

mutations	observed measurement
A145C C150A C169A	0.0125
C82U A111C A120C A145G C150U C169U U176C	0.0139
C82U A111G A120G A145G C150G C169U U176A	0.0114
C82G A111U A120C A145U C169A U176C	0.0142
A111C A120C A145G C150G C169G U176G	0.00553
C82G A111G A120U A145G C150A C169A U176C	0.00503
C82G A120U A145G C150A C169G U176G	0.00199
C82A A111C A120U A145C C150G	0.00708
C82U A111U A120G A145U C150U C169U	0.00788
C82A A111C A120U A145U U176A	0.00697
C82A A111C A120G A145U C150U C169U	0.00924
